- target.under.test: histidinol dehydrogenase from cabbage (Brassica oleracea var. capitata)
- Construct: Spring cabbage heads are homogenized using a kitchen mixer; from tissue; host or cells: mature spring cabbage heads
- Sequence (P24226 32-469): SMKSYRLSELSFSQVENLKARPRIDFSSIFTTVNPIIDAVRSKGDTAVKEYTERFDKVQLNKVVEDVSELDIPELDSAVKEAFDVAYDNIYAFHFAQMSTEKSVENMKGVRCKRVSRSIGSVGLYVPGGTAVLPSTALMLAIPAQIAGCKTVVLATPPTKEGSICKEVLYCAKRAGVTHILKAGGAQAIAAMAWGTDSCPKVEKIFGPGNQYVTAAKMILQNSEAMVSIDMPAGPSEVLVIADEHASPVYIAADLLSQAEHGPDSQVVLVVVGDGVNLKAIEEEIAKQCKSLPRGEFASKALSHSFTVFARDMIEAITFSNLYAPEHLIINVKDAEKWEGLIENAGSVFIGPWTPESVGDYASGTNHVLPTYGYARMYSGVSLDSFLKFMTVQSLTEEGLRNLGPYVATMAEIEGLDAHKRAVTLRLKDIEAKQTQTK
- assay.procedure: Histidinol dehydrogenase enzyme assay (spectrophotometric, NAD+ reduction at 340 nm)
- Assay type: biochemical
- setup.conditions: reaction buffer 150 mM Gly/NaOH, pH9.2
parameter: influence of divalent metal ion on the enzyme reaction (in words)

smiles.representation	target.under.test	observed.value
[Cu+2]	histidinol dehydrogenase from cabbage (Brassica oleracea var. capitata)	caused inhibition
[Mg+2]	histidinol dehydrogenase from cabbage (Brassica oleracea var. capitata)	caused inhibition
[Zn+2]	histidinol dehydrogenase from cabbage (Brassica oleracea var. capitata)	caused inhibition
[Ni+2]	histidinol dehydrogenase from cabbage (Brassica oleracea var. capitata)	caused inhibition
[Ba+2]	histidinol dehydrogenase from cabbage (Brassica oleracea var. capitata)	caused inhibition

Lab note: next compound to report on.
Measured influence of divalent metal ion on the enzyme reaction (in words) for this entry [Ca+2] on histidinol dehydrogenase from cabbage (Brassica oleracea var. capitata): caused inhibition

Attribution: patent US5290926A
